Here the recorded pIC50 is given for each entry.
- Test system: complete RRE-Rev complex
- measurement description: Electrophoretic mobility shift assay (EMSA) of complete RRE-Rev complex formation
- Type: binding, HIV-1
- condition summary: 78 nM RRE and 1.32 μM Rev, two independent experiments
pIC50: −log10 of the molar value.

{"smiles entry": "Fc1nc(N2CCNCC2)c(F)c(Sc2ccc(Cl)cc2)c1F", "pIC50": 5.33}
{"smiles entry": "N=c1c(S(=O)(=O)c2ccc(Cl)cc2)cc2c(=O)n3ccccc3nc2n1C1CCCCC1", "pIC50": 4.86}

###

Reported EC50 values for a set of compounds
- Tested on: complete HIV-1 (NL4.3-luc)
- measurement description: Cell transfection assay, full-length HIV-1 luciferase plasmid (NL4.3-luc) in MT-2 cells
- Type: cell-based
- condition summary: Human immunodeficiency virus 1, MT2, read-out: EC50 transfection assay of full-length HIV-1 vector

{"smiles entry": "CN(C)CCOc1cc2c(c3ccccc13)-c1ccccc1C2=O", "experimental system": "complete HIV-1 (NL4.3-luc)", "EC50": "2.5 to 3.3 µM"}
{"smiles entry": "Fc1nc(N2CCNCC2)c(F)c(Sc2ccc(Cl)cc2)c1F", "experimental system": "complete HIV-1 (NL4.3-luc)", "EC50": "2.5 to 3.3 µM"}

###

- experimental system: subdomain IIB of the RRE (IIBh-19ap RNA)
- measurement description: Fluorescence intensity binding to IIBh RNA, with or without competing RNAtCys or LTRd DNA
- Design: species or system HIV-1
- condition summary: IIBh-19ap, no competitor; read-out: Kd(IIBh)
pKd: −log10 of the molar value.
parameter: pKd

{"smiles entry": "Fc1nc(N2CCNCC2)c(F)c(Sc2ccc(Cl)cc2)c1F", "numeric result": 4.97}
{"smiles entry": "N=c1c(S(=O)(=O)c2ccc(Cl)cc2)cc2c(=O)n3ccccc3nc2n1C1CCCCC1", "numeric result": 4.92}

###

- measurement description: Cell toxicity, CellTiter-Glo assay
- Format: cell-based
- condition summary: human
- Method: Anti-HIV-1 Activity and Cell Toxicity. The methodology used for performing and analyzing these experiments has been described previously (Prado et al., Biochem Pharmacol 107 (2016) 14-28; Gonzalez-Bulnes et al., Angewandte Chemie-International Edition 52(50) (2013) 13405-13409). […] MT-2 cells were infected with these supernatants in the presence of the compounds, and the anti-HIV activity was quantified 48 h after infection by determining luciferase activity in the cell lysates. […]

{"smiles entry": "Fc1nc(N2CCNCC2)c(F)c(Sc2ccc(Cl)cc2)c1F", "CC50 / µM": 43.9}

###

- experimental system: subdomain IIB of the RRE (IIBh-19ap RNA)
- measurement description: Fluorescence intensity binding to IIBh RNA, with or without competing RNAtCys or LTRd DNA
- Set-up: species or system HIV-1
- condition summary: fluorescence intensity; read-out: Kd for subdomain IIB of the RRE
pKd: −log10 of the molar value.

{"molecule": "CN(C)CCOc1cc2c(c3ccccc13)-c1ccccc1C2=O [Compound 1a]", "pKd": 5.85}

###

- measurement description: Cell toxicity, CellTiter-Glo assay
- Type: cell-based
- condition summary: human; MT-2 cells, CellTiter-Glo; read-out: CC50
Collected CC50 values appear next to each entry.

{"smiles entry": "CN(C)CCOc1cc2c(c3ccccc13)-c1ccccc1C2=O", "sign qualifier": "=", "CC50 [µM]": 28.1}
{"smiles entry": "N=c1c(S(=O)(=O)c2ccc(Cl)cc2)cc2c(=O)n3ccccc3nc2n1C1CCCCC1", "sign qualifier": ">", "CC50 [µM]": 100}
